I'd appreciate it if you could supply relative binding ratio values for the items below.
Biological target: HLA-A*1101 (human)
Experiment: inhibition of labelled probe peptide binding to purified HLA
Settings: remark: other sources report otherwise
One number for each entry.

{"binder": "RTEEENLRKK [p53 peptide, position 283, 10 amino acids]", "relative binding ratio": 0.008}

Please look at the items below and tell me relative binding ratio for each one, in order.
1. VTCTYSPALNK [p53 peptide, position 122, 11 amino acids]
2. RTEEENLRK [p53 peptide, position 283, 9 amino acids]

1. 0.12
2. 0.091

Find the recorded relative binding ratio belonging to SSCMGGMNR [p53 peptide, position 240, 9 amino acids] and report it.
1.4
